Tested on: MCF-10A
Assay Notes: normalised response (% of control), CellTox Green; higher = less cell death (100 = DMSO, 0 = benzethonium chloride kill control)
Experimental Conditions: incubation time: 72 h
Parameter Measured: normalised response

Examples with answers:
CN(N=O)C(=O)N[C@@H](C=O)[C@@H](O)[C@H](O)[C@H](O)CO [Streptozocin] (1000 nM) | 53.9%
N#CCNC(=O)c1ccc(-c2ccnc(Nc3ccc(N4CCOCC4)cc3)n2)cc1 [Momelotinib] (100 nM) | 66.3%
CS(=O)(=O)c1ccc(C2=C(c3ccccc3)C(=O)OC2)cc1 [Rofecoxib] (100 nM) | 88.5%

Now turn to the next compound.
State its normalised response on MCF-10A: COc1cc([C@@H]2c3cc4c(cc3[C@@H](O[C@@H]3O[C@@H]5CO[C@@H](C)O[C@H]5[C@H](O)[C@H]3O)[C@H]3COC(=O)[C@H]23)OCO4)cc(OC)c1O [Etoposide] (100 nM)
75%
